# test_details: Lipophilicity, log P of the compound
# Assay type: physicochemical
# run_conditions: octanol/water
Threshold rule: logP greater than or equal to 7 is yes; below that, no.

Ask | # check: logP of `Cl.O=C1/C(=C/c2ccc(Cl)cc2)CN(C(=O)c2ccc(OCCN3CCCCC3)cc2)C/C1=C\c1ccc(Cl)cc1` is greater than or equal to 7
Reply | yes

Ask | Please indicate if the recorded logP for `CCN(CC)CCOc1ccc(C(=O)N2C/C(=C\c3ccc([N+](=O)[O-])cc3)C(=O)/C(=C/c3ccc([N+](=O)[O-])cc3)C2)cc1.Cl` meets or exceeds 7.
Reply | no

Ask | Confirm if logP reported for the molecule `CCN(CC)CCOc1ccc(C(=O)N2C/C(=C\c3ccc(C)cc3)C(=O)/C(=C/c3ccc(C)cc3)C2)cc1.Cl` is 7 or above.
Reply | yes

Ask | Check the entry `O=C1/C(=C/c2ccc([N+](=O)[O-])cc2)CNC/C1=C\c1ccc([N+](=O)[O-])cc1` : does logP equal or exceed 7?
Reply | no

Ask | Is it the case that `Cl.O=C1/C(=C/c2ccc([N+](=O)[O-])cc2)CN(C(=O)c2ccc(OCCN3CCCCC3)cc2)C/C1=C\c1ccc([N+](=O)[O-])cc1` has logP reaching or exceeding 7?
Reply | no

* * *

# Tested on: Mus musculus
# test_details: Neurotoxicity in mouse at 300 mg/kg after 0.5 hrs
# Format: toxicity, organism-based
# Set-up: dose 300 mg/kg
# run_conditions: in vivo
property_measured: Activity

Some compounds with recorded Activity:
{"given_smiles": "O=C1/C(=C/c2ccc([N+](=O)[O-])cc2)CNC/C1=C\\c1ccc([N+](=O)[O-])cc1", "property_measured": "Activity", "recorded_measurement": "Non-toxic"}
{"given_smiles": "CCN(CC)CCOc1ccc(C(=O)O)cc1.Cl", "property_measured": "Activity", "recorded_measurement": "Non-toxic"}
{"given_smiles": "COc1ccc(C(=O)N2C/C(=C\\c3ccc(Cl)cc3)C(=O)/C(=C/c3ccc(Cl)cc3)C2)cc1", "property_measured": "Activity", "recorded_measurement": "Non-toxic"}
{"given_smiles": "Cl.O=C1/C(=C/c2ccccc2)CNC/C1=C\\c1ccccc1", "property_measured": "Activity", "recorded_measurement": "Non-toxic"}
{"given_smiles": "CN(C)CCOc1ccc(C(=O)N2C/C(=C\\c3ccc(Cl)cc3)C(=O)/C(=C/c3ccc(Cl)cc3)C2)cc1.Cl", "property_measured": "Activity", "recorded_measurement": "Non-toxic"}
{"given_smiles": "CC[N+](C)(CC)CCOc1ccc(C(=O)N2C/C(=C\\c3ccccc3)C(=O)/C(=C/c3ccccc3)C2)cc1.[I-]", "property_measured": "Activity", "recorded_measurement": "Toxic"}

Ask | Returns the measured Activity for the input compound. Input: `CC[N+](C)(CC)CCOc1ccc(C(=O)N2C/C(=C\c3ccc([N+](=O)[O-])cc3)C(=O)/C(=C/c3ccc([N+](=O)[O-])cc3)C2)cc1.[I-]`
Reply | Toxic

Ask | I would be grateful if you could share the reported Activity for `Cc1ccc(/C=C2\CN(C(=O)c3ccc(OCCN4CCCCC4)cc3)C/C(=C\c3ccc(C)cc3)C2=O)cc1.Cl` .
Reply | Non-toxic

* * *

Hi there, I'd appreciate the recorded logP for every entry that follows.
# test_details: Lipophilicity, log P of the compound
# Assay type: physicochemical
# run_conditions: octanol/water
# print the numeric value only

Ask | Consider the compound `Cl.O=C1/C(=C/c2ccccc2)CN(C(=O)c2ccc(OCCN3CCCCC3)cc2)C/C1=C\c1ccccc1` and give its measured logP.
Reply | 7.1

Ask | Look up logP: `Cc1ccc(/C=C2\CN(C(=O)c3ccc(OCCN4CCCCC4)cc3)C/C(=C\c3ccc(C)cc3)C2=O)cc1.Cl`
Reply | 8

Ask | Fill in: logP of `Cc1ccc(/C=C2\CN(C(=O)c3ccc(OCCN(C)C)cc3)C/C(=C\c3ccc(C)cc3)C2=O)cc1.Cl` is ___
Reply | 6.8
